Assay: qHTS assay for MDR1-selective chemotherapeutics: Primary screen using the drug-selected MDR subline cells KB-V1; note: nearly all actives have a fitted effect of over 60% in size
Settings: KB-V1 MDR cells viability, CellTiter-Glo, 72 h; series mostly up to 46.1 µM
From the text: A prime difficulty in effectively treating cancer is the development of cellular resistance to multiple structurally unrelated anticancer drugs, a phenomenon known as multidrug resistance (MDR). […] Numerous strategies to overcome P-gp-mediated MDR have been explored, including the design of drugs that evade recognition and efflux, and development of inhibitors to block efflux and restore drug accumulation. […]
Hit rate of the full screen: of about 400,000 compounds, about 13,000 (3.2%) were called active. Roughly 18% stayed inconclusive and do not appear here. Calls come from the whole dose curve; as a rule, active = well fitted cell-killing curve with a large enough effect; inconclusive = small, poorly fitted or top-dose-only effect, or effect the other way; inactive = flat fitted curve, though single readings scatter. Many of the other results were omitted from the sample, so actives are more common in it than they were.
Respond with a class label; see Y for active, N for inactive

# molecule, classification
rows = [
    ("O=C(NNC(=O)c1ccccc1O)c1ccccc1O", "Y"),
    ("Cc1cccc(NC(=O)C2CCN(C(=O)NC3CCCCC3)CC2)c1", "N"),
    ("COC(=O)CCCCC1=CCC2C(=O)C=C(O)C2C1 (stereo unspecified)", "N"),
    ("COCCNC(=O)C1(C)CCCN(Cc2cccc(F)c2)C1 (stereo unspecified)", "N"),
    ("Cc1cc(C(=O)CCC(=O)NNC(=O)c2ccccc2O)c(C)s1", "N"),
    ("CC(=O)c1nn(-c2ccc(C)cc2)cc1C(=O)c1cccc(Br)c1", "N"),
    ("CC(C)(C)C(=O)Nc1ccc(-c2cn3cccnc3n2)cc1", "N"),
    ("COc1ccc(C(=O)Nc2cccc(NC(=O)c3ccc(OC)cc3OC)n2)c(OC)c1", "N"),
]

# outcome recorded in this test, key = Cc1ccccc1NC(=O)C1CCN(C(=O)NC2CCCCC2)CC1
N

Given CNS(=O)(=O)c1ccc2c(c1)[nH]c(=S)n2C , state the outcome it received in this test.
N

GET /call?item= CC(C)Oc1ccc(CN2CCC2(C)C(=O)NCc2ccc(C(F)(F)F)cc2)cc1 (stereo unspecified) returns the recorded outcome of this test.
N
